meta.source: the supplement of paper PMC10065799

- Test system: AncSZ
- assay remarks: phosphorylation enrichment, bacterial display (enrichment ratio); higher = better substrate or ligand; peptides without Tyr show the background
property name: phosphorylation enrichment
When you answer, write just the number.

Look over these answered cases.
{"chain sequence": "IKNFKYGIEEH [GJA1_Y137_K134N]", "experimental system": "AncSZ", "experimental result": 0.621}
{"chain sequence": "PSALGYSPSLR [LLGL2_Y40]", "experimental system": "AncSZ", "experimental result": 0.669}
{"chain sequence": "EFGSGYPNDPK [RNASEH2A_Y210_D205E_YF]", "experimental system": "AncSZ", "experimental result": 0.884}
{"chain sequence": "YASALYGQRRS [FGF11_Y162_R163G]", "experimental system": "AncSZ", "experimental result": 0.633}
{"chain sequence": "AQAGEYGAEAL [HBA1_Y25_H21Q]", "experimental system": "AncSZ", "experimental result": 0.965}
{"chain sequence": "VDGSLYETHPQ [HK1_Y417_K418E]", "experimental system": "AncSZ", "experimental result": 1.26}

Prompt: Please give the documented phosphorylation enrichment of SSMNDYNPLEK [MYOC_Y479_I477N]
Completion: 0.797

Prompt: Please give the documented phosphorylation enrichment of MGGSVYFSFPD [HIKESHI_Y55_YF]
Completion: 1.55

Prompt: Please give the documented phosphorylation enrichment of ITRDEYPSNPM [CEMIP2_Y1015]
Completion: 0.688

Prompt: Please give the documented phosphorylation enrichment of TLLERYGMIEI [ACSF3_Y355_T358I]
Completion: 0.798

Prompt: Please give the documented phosphorylation enrichment of GRGMPYGGRGD [TGM1_Y312_R307G]
Completion: 0.476

----------
- experimental system: EPHB1 (UniProt P54762)
- Sequence (P54762 whole entry, looked up): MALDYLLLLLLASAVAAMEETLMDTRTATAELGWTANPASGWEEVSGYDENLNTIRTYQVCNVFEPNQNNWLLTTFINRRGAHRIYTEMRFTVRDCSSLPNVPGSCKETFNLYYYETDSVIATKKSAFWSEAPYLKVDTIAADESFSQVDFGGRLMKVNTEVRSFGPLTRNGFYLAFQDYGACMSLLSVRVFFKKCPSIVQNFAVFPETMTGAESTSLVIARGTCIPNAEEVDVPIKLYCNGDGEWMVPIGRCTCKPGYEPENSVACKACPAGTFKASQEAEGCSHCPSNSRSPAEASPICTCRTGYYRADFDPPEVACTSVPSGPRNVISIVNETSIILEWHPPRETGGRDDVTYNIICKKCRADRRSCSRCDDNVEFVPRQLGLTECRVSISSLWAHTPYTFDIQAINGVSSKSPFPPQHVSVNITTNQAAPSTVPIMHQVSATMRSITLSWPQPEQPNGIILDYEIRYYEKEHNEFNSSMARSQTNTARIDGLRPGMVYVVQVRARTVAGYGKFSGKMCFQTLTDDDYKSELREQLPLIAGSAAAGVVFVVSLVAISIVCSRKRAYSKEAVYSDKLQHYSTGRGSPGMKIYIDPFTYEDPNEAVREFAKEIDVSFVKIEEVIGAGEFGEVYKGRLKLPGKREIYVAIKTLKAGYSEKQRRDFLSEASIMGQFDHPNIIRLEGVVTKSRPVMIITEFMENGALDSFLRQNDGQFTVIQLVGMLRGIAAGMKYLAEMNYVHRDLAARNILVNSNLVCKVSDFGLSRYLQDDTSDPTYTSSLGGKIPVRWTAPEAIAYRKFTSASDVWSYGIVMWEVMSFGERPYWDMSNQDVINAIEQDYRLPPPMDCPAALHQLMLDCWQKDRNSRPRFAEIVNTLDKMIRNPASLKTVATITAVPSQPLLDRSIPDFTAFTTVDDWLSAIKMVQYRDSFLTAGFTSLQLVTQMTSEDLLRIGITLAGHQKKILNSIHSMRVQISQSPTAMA
- assay remarks: phosphorylation enrichment, bacterial display (enrichment ratio); higher = better substrate or ligand; peptides without Tyr show the background
Listed next: entries and their corresponding phosphorylation enrichment.
When you answer, write just the number.

Look over these answered cases.
{"chain sequence": "PKEEPYQMQEK [SLC5A3_Y565]", "phosphorylation enrichment": 0.964}
{"chain sequence": "LYIDSYEKDVA [PGM1_Y521]", "phosphorylation enrichment": 0.816}
{"chain sequence": "QMVGMYASFFM [AVPR2_Y124_S127F_YF]", "phosphorylation enrichment": 3.06}
{"chain sequence": "LEIETCRRLLD [KRT12_Y429_Y429C]", "phosphorylation enrichment": 0.939}
{"chain sequence": "VAHAVYQAVLS [SMG1_Y549]", "phosphorylation enrichment": 9.09}
{"chain sequence": "GQKVAYGGTED [ALDH3A1_Y305_G309E]", "phosphorylation enrichment": 0.424}

Prompt: Please give the documented phosphorylation enrichment of VGEGPYLLSDL [ABCC12_Y7_I9L]
Completion: 0.461

Prompt: Please give the documented phosphorylation enrichment of SVTCTCSPALN [TP53_Y126_Y126C]
Completion: 0.704

Prompt: Please give the documented phosphorylation enrichment of TDECEYDELIV [TGM1_Y136_Y134C]
Completion: 1.09

----------
- experimental system: FGFR1 (UniProt P11362)
- Sequence (P11362 whole entry, looked up): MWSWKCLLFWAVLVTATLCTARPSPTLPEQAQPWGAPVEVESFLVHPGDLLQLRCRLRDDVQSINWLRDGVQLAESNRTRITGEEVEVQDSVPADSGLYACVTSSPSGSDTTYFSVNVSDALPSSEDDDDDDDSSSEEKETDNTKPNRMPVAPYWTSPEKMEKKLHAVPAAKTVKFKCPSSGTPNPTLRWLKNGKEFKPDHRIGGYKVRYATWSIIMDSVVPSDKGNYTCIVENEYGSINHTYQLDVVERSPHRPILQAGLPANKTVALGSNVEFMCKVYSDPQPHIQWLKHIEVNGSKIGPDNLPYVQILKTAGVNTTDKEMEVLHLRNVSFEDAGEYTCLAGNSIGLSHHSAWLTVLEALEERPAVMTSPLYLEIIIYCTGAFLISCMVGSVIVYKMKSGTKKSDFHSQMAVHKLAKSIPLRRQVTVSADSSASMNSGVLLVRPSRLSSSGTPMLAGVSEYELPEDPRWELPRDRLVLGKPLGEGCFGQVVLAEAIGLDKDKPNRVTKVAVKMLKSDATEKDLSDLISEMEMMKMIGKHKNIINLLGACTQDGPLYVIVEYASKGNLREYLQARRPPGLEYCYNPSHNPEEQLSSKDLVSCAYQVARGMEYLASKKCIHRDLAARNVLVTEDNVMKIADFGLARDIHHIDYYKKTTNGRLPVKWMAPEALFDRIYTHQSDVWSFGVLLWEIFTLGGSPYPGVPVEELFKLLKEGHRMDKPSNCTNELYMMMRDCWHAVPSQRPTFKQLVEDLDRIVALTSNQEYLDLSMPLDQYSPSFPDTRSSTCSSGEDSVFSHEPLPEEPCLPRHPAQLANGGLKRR
- assay remarks: phosphorylation enrichment, bacterial display (enrichment ratio); higher = better substrate or ligand; peptides without Tyr show the background
Listed next: entries and their corresponding phosphorylation enrichment.
When you answer, write just the number.

Look over these answered cases.
{"chain sequence": "GRPLSYWLTGC [LYZL6_Y140_F139S]", "experimental result": 0.535}
{"chain sequence": "TDECEYDELIV [TGM1_Y136_Y134C]", "experimental result": 0.57}
{"chain sequence": "GGGGGYNCSSG [FUS_Y232_R234C]", "experimental result": 0.378}

Prompt: Please give the documented phosphorylation enrichment of PVGVLYKVKVY [PTS_Y128]
Completion: 0.337

Prompt: Please give the documented phosphorylation enrichment of QTEAEYRFIYM [PTPN11_Y511_Q510E]
Completion: 4.4

----------
- Test system: c-Src
- assay remarks: phosphorylation enrichment, bacterial display (enrichment ratio); higher = better substrate or ligand; peptides without Tyr show the background
Param threshold (0.6) applies to phosphorylation enrichment; output TRUE when value >= threshold, FALSE when value < threshold.

Field: example entries. Status: answers known.
{"chain sequence": "LSRDVYEEDSY [RET_Y900]", "category label": "TRUE"}
{"chain sequence": "AIDDKYSRREE [SART1_Y685]", "category label": "FALSE"}
{"chain sequence": "RFLRGYRQDAY [HLA-A_Y137]", "category label": "TRUE"}

Prompt: Check the entry VNFDYYTVNLG [GFPT1_Y367_D366Y] : does phosphorylation enrichment equal or exceed 0.6?
Completion: TRUE

Prompt: Check the entry SECCKYKTDNP [OSMR_Y689_I691T] : does phosphorylation enrichment equal or exceed 0.6?
Completion: FALSE

Prompt: Check the entry TCFDKYTGNTF [FN1_Y101_YF] : does phosphorylation enrichment equal or exceed 0.6?
Completion: FALSE

Prompt: Check the entry DLAGRYYALKS [CKB_Y173] : does phosphorylation enrichment equal or exceed 0.6?
Completion: FALSE

Prompt: Check the entry NGTVTYAIIAG [CDH23_Y1672_V1675I] : does phosphorylation enrichment equal or exceed 0.6?
Completion: TRUE

Prompt: Check the entry LHSEAYLKYIE [PBRM1_Y1610] : does phosphorylation enrichment equal or exceed 0.6?
Completion: TRUE

Prompt: Check the entry SPPPAYTPMSG [ERBB4_Y1056] : does phosphorylation enrichment equal or exceed 0.6?
Completion: FALSE

Prompt: Check the entry VLTSKYRGGGG [HBA1_Y141] : does phosphorylation enrichment equal or exceed 0.6?
Completion: FALSE

Prompt: Check the entry AGIKAYQSCLQ [ADGRA2_Y377_T375K] : does phosphorylation enrichment equal or exceed 0.6?
Completion: FALSE

Prompt: Check the entry EWKNNYPRLRE [OPA1_Y582] : does phosphorylation enrichment equal or exceed 0.6?
Completion: FALSE

Prompt: Check the entry IIEDPYFGNDF [ACP1_Y132_S137F_YF] : does phosphorylation enrichment equal or exceed 0.6?
Completion: TRUE

Prompt: Check the entry APAHKYHGGGG [HBD_Y146_L142P] : does phosphorylation enrichment equal or exceed 0.6?
Completion: FALSE

Prompt: Check the entry VLPIDYYFPPQ [AR_Y552] : does phosphorylation enrichment equal or exceed 0.6?
Completion: TRUE

----------
- experimental system: Grb2 SH2 (UniProt P62993)
- Sequence (P62993 whole entry, looked up): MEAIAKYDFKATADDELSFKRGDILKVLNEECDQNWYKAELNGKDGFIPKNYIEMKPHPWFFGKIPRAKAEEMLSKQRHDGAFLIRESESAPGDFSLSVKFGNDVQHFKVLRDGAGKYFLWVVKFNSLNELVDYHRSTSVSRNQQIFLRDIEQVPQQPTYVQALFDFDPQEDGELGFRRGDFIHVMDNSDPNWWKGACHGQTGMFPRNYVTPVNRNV
- assay remarks: SH2 binding enrichment of the phosphorylated peptide, bacterial display (enrichment ratio); higher = better substrate or ligand; peptides without Tyr show the background
Listed next: entries and their corresponding SH2 binding enrichment.

{"chain sequence": "TILEHYRRTHC [MYBPC3_Y1119_V1115I]", "experimental system": "Grb2 SH2 (UniProt P62993)", "SH2 binding enrichment": 0.874}

Prompt: Please give the documented SH2 binding enrichment of CTTIHYNFLCN [TP53_Y234_M237L_YF]
Completion: 1.93

----------
- Test system: AncSZ
- assay remarks: phosphorylation enrichment, bacterial display (enrichment ratio); higher = better substrate or ligand; peptides without Tyr show the background
Param threshold (0.6) applies to phosphorylation enrichment; output yes (1) when value >= threshold, no (0) when value < threshold.

Field: example entries. Status: answers known.
{"chain sequence": "PVQAPYQKVVA [HBB_Y131_A130P]", "category label": "yes (1)"}
{"chain sequence": "NACGLYFKLHN [GATA2_Y376_YF]", "category label": "yes (1)"}
{"chain sequence": "GGGGGYNCSSG [FUS_Y232_R234C]", "category label": "no (0)"}

Prompt: Check the entry ILCTVYAFKTR [GRM3_Y754] : does phosphorylation enrichment equal or exceed 0.6?
Completion: yes (1)

Prompt: Check the entry TPGPNYRPGYN [USH2A_Y463] : does phosphorylation enrichment equal or exceed 0.6?
Completion: no (0)

Prompt: Check the entry GHEFIYVDRMQ [PDGFRB_Y581_P584R_YF] : does phosphorylation enrichment equal or exceed 0.6?
Completion: yes (1)

Prompt: Check the entry PHIKTYMRPSP [TDP1_Y497] : does phosphorylation enrichment equal or exceed 0.6?
Completion: yes (1)

Prompt: Check the entry LVMFIYVIFGM [SCN1A_Y1684_A1685V] : does phosphorylation enrichment equal or exceed 0.6?
Completion: yes (1)

Prompt: Check the entry DLAGRYYALKS [CKB_Y173] : does phosphorylation enrichment equal or exceed 0.6?
Completion: no (0)

Prompt: Check the entry ETGNLYIAKVE [CNTN4_Y180] : does phosphorylation enrichment equal or exceed 0.6?
Completion: yes (1)

Prompt: Check the entry FEEDSYVTRSQ [RET_Y905_K907T_YF] : does phosphorylation enrichment equal or exceed 0.6?
Completion: yes (1)

Prompt: Check the entry SLNEVYTKNKT [MSH2_Y563_E562V] : does phosphorylation enrichment equal or exceed 0.6?
Completion: yes (1)

Prompt: Check the entry ADKSVYLMGLN [MYH7_Y386_A385V] : does phosphorylation enrichment equal or exceed 0.6?
Completion: yes (1)

Prompt: Check the entry ARTNEYKIIRT [INA_Y87] : does phosphorylation enrichment equal or exceed 0.6?
Completion: no (0)
